# studySystem: Calpain-2 catalytic subunit (Sus scrofa, UniProt P43367)
# Sequence (P43367 whole entry): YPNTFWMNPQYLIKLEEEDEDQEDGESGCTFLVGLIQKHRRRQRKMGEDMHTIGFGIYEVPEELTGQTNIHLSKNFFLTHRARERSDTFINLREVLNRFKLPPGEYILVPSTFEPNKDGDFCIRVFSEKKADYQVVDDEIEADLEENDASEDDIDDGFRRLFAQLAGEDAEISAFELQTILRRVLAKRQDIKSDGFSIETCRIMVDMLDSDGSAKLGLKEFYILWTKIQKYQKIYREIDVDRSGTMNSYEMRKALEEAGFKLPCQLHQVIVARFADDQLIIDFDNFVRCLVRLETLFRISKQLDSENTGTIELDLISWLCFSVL
# experimentNotes: m-calpain protease blockers, concentration series – biochemical, fluorogenic peptide substrate, dose response (AID 1420)
# Assay type: functional
Active and inactive are the calls of the source. No rule for the calls is given here.
Provide the reported IC50 of each item.

For orientation, consider the following solved cases.
>  <molecule>
COc1cc(/C=N/NS(=O)(=O)c2ccc(C)cc2)ccc1OCc1ccc(C(=O)O)cc1

>  <IC50>
> 50 µM (not active)

$$$$
>  <molecule>
COc1ccc(-c2csc(NC(=O)c3ccccc3NS(=O)(=O)c3ccc(F)c(F)c3)n2)cc1

>  <IC50>
> 50 µM (not active)

$$$$
>  <molecule>
O=C1C2CCCCC2C(=O)N1c1ccc(NC2CCN(Cc3ccccc3)CC2)c([N+](=O)[O-])c1 (stereo not drawn)

>  <IC50>
> 50 µM (not active)

$$$$
>  <molecule>
CCN(CC)c1ccc(C(=O)NC(=S)Nc2cc(S(=O)(=O)N3CCOCC3)ccc2-n2cncn2)cc1

>  <IC50>
9.89 µM (not active)

$$$$
>  <molecule>
O=C(Nc1cccc(-c2nc3cccnc3s2)c1)C1c2ccccc2Oc2ccccc21

>  <IC50>
7.46 µM (active)

$$$$

Count: 3. Required value per item: IC50.
1. COc1ccc(OC)c(CNc2ccc([N+](=O)[O-])cc2C)c1
2. C(=C\c1ccccc1)/C=N/N1CCN(Cc2ccccc2)CC1
3. CCOc1cc(/C=N/Nc2ccc(C(=O)O)cc2)ccc1OC(=O)c1ccccc1C

["8.98 µM (not active)", "> 50 µM (not active)", "5.07 µM (active)"]
